Catalogue of sequences with associated binding signal
system_tested: SIX1 homeodomain (reference allele) (human, UniProt Q15475 108-198)
Sequence: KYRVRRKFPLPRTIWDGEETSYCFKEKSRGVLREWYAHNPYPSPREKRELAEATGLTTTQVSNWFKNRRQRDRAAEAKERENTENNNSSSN
assay_protocol: universal protein binding microarray; Universal all-10-mer PBM (8x60K, AMADID 030236), 300 nM GST-tagged protein, Alexa Fluor 488 anti-GST; buffer, salt, pH and temperature not stated (as in Berger); high values mean tight binding
experimental_parameters: protein: ivt; tags: N-terminal GST; dsDNA, one strand shown
The full ranking holds about 33,000 sequences; the median of “e-score” is about -0.053, and the highest 2% start at about 0.38. The list comes from a sample in which the highest values are over-represented; it also holds close analogues and randomly drawn sequences.
Return type: number; implicit unit E-score.

Look over these answered cases.
sequence_input | system_tested | unit_spec | binding signal
AGGTATCC | SIX1 homeodomain (reference allele) (human, UniProt Q15475 108-198) | E-score | 0.461
CGATATAC | SIX1 homeodomain (reference allele) (human, UniProt Q15475 108-198) | E-score | 0.405
ACCTATCC | SIX1 homeodomain (reference allele) (human, UniProt Q15475 108-198) | E-score | 0.262
ATCAAATA | SIX1 homeodomain (reference allele) (human, UniProt Q15475 108-198) | E-score | 0.239
GACACCAA | SIX1 homeodomain (reference allele) (human, UniProt Q15475 108-198) | E-score | 0.364
CCGACACC | SIX1 homeodomain (reference allele) (human, UniProt Q15475 108-198) | E-score | 0.438

Entry under review: CGGTGATC . Reported binding signal?
0.351

Next up: ACGACACG
0.156

###

system_tested: SIX1 homeodomain (reference allele) (human, UniProt Q15475 108-198)
Sequence: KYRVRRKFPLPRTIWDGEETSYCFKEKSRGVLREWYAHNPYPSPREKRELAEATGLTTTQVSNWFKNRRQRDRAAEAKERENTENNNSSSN
assay_protocol: universal protein binding microarray; Universal all-10-mer PBM (8x60K, AMADID 030236), 300 nM GST-tagged protein, Alexa Fluor 488 anti-GST; buffer, salt, pH and temperature not stated (as in Berger); high values mean tight binding
experimental_parameters: protein: ivt; tags: N-terminal GST; dsDNA, one strand shown
The full ranking holds about 33,000 sequences; the median of “e-score” is about -0.053, and the highest 2% start at about 0.38. Only a selection was taken, and the highest values are over-represented in it overall.
API: label(entry) gives rule met if the entry's binding signal is strictly smaller than 0.3 E-score; on equality or larger values it gives rule not met.

Examples from the recorded data:
sequence_input | assigned_label
TATCAGGA | rule not met
CCATATCG | rule not met
CGAGGGGA | rule met

Please indicate whether the reported binding signal of ACCGATCC is strictly below 0.3 E-score.
rule not met

Same question for ATACTTTA please.
rule met

Now consider ACTCGGGG and answer again.
rule met

###

binding signal listing for selected sequences.
system_tested: SIX1 homeodomain (reference allele) (human, UniProt Q15475 108-198)
Sequence: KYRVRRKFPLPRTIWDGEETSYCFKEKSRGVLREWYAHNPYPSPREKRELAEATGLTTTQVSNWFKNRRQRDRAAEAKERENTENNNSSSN
assay_protocol: universal protein binding microarray; Universal all-10-mer PBM (8x60K, AMADID 030236), 300 nM GST-tagged protein, Alexa Fluor 488 anti-GST; buffer, salt, pH and temperature not stated (as in Berger); high values mean tight binding
experimental_parameters: protein: ivt; tags: N-terminal GST; dsDNA, one strand shown
The full ranking holds about 33,000 sequences; the median of “e-score” is about -0.053, and the highest 2% start at about 0.38. Shown is part of a subset that was picked to be rich in the highest values.
Please give a number only; it is taken to be in E-score.

Solved cases below.
sequence_input | binding signal [E-score]
AGATAATA | 0.245
ATCCCGGC | 0.173

Consider now this further sequence.
I have this sequence here, ATATCGAT , and I need its recorded binding signal.
0.411
